MEASURED ON: epithelial sodium channel (ENaC) (Mus musculus, UniProt Q61180+Q9WU38+Q9WU39)
Construct: Mouse kidney M-1 cells were cultivated in DMEM; endogenous in cells; host or cells: mouse kidney M-1 cells (cortical collecting duct line), dexamethasone-treated, on transwell filters
EXPERIMENT: Ussing Chamber assay: inhibition of amiloride sensitive short circuit current (I_sc) in M-1 cells
Format: cell-based
CONDITION PARAMETERS: Ussing Chamber; mouse kidney M-1 cells on transwell filters; short circuit current; compound added to apical solution; 37° C.; read-out: IC50
pIC50: −log10 of the molar value.
Reported pIC50 values are given for each entry in this list.

COMPOUND | pIC50
CCS(=O)(=O)CCN1CCC(NC(N)=NC(=O)c2nc(Cl)c(N)nc2N)CC1 [Example 4.3] | 8.00
NC(=NC(=O)c1nc(Cl)c(N)nc1N)NC1CCN(CC(=O)NCc2nccs2)CC1 [Example 6.11] | 8.52
NC(=NC(=O)c1nc(Cl)c(N)nc1N)NC1CCN(CC(=O)Nc2ccc(S(N)(=O)=O)cc2)CC1 [Example 1.4] | 8.70
NC(=NC(=O)c1nc(Cl)c(N)nc1N)NC1CCN(CC(=O)N2CCSCC2)CC1 [Example 4.15] | 7.92
NC(=NC(=O)c1nc(Cl)c(N)nc1N)NC1CCN(CC(=O)Nc2ccc(S(=O)(=O)O)cc2)CC1 [Example 1.13] | 7.64
CN1CCC(N(C)C(=O)c2ccc(NC(=O)CN3CCC(NC(N)=NC(=O)c4nc(Cl)c(N)nc4N)CC3)cc2)CC1 [Example 1.5] | 8.22
CN(C)CCN(C)S(=O)(=O)c1ccc(NC(=O)CN2CCC(NC(N)=NC(=O)c3nc(Cl)c(N)nc3N)CC2)cc1 [Example 1.11] | 9.00
NC(=NC(=O)c1nc(Cl)c(N)nc1N)NC1CCN(CC(=O)NCc2ccc(S(N)(=O)=O)cc2)CC1 [Example 1.26] | 8.52
NC(=NC(=O)c1nc(Cl)c(N)nc1N)NC1CCN(CC(=O)Nc2ccc(CN3CCCCC3)cc2)CC1 [Example 1.8] | 9.00
CCNC(=O)CN1CCC(NC(N)=NC(=O)c2nc(Cl)c(N)nc2N)CC1 [Example 1.33] | 8.30
CC(C)NC(=O)CN1CCC(NC(N)=NC(=O)c2nc(Cl)c(N)nc2N)CC1 [Example 6.7] | 8.52
CCN(CC)C(=O)CN1CCC(NC(N)=NC(=O)c2nc(Cl)c(N)nc2N)CC1 [Example 4.5] | 7.44
NC(=O)c1cccc(CNC(=O)CN2CCC(NC(N)=NC(=O)c3nc(Cl)c(N)nc3N)CC2)c1 [Example 6.9] | 8.10
NC(=NC(=O)c1nc(Cl)c(N)nc1N)NC1CCN(CCCC(=O)O)CC1 [Example 5.3] | 6.77
CN(Cc1ccccc1)C(=O)CN1CCC(NC(N)=NC(=O)c2nc(Cl)c(N)nc2N)CC1 [Example 1.21] | 7.74
CN(C)CCN(c1ccc(NC(=O)CN2CCC(NC(N)=NC(=O)c3nc(Cl)c(N)nc3N)CC2)cc1)S(C)(=O)=O [Example 1.14] | 9.00

* * *

MEASURED ON: epithelial sodium channel (ENaC) (Mus musculus, UniProt Q61180+Q9WU38+Q9WU39)
Construct: Mouse kidney M-1 cells were cultivated in DMEM; endogenous in cells; host or cells: mouse kidney M-1 cells (cortical collecting duct line), dexamethasone-treated, on transwell filters
Sequence (Q61180 1-699): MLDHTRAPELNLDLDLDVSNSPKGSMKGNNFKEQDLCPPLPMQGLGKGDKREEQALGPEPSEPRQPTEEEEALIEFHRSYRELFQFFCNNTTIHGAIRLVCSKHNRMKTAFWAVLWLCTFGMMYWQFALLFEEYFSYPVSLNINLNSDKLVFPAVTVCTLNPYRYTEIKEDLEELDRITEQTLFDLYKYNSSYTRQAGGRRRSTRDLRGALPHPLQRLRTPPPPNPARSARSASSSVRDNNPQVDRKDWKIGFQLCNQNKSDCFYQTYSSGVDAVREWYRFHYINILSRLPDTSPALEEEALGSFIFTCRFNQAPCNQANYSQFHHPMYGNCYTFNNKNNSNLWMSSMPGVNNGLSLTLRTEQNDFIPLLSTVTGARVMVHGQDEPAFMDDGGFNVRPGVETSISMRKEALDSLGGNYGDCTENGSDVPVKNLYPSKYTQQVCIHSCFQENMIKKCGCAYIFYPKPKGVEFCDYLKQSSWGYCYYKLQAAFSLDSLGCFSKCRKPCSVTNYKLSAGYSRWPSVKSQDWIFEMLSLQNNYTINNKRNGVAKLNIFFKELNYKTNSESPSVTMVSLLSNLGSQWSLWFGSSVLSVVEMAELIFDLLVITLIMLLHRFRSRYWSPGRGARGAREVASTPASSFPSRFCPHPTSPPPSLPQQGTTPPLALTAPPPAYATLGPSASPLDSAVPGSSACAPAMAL
Sequence (Q9WU38 1-638): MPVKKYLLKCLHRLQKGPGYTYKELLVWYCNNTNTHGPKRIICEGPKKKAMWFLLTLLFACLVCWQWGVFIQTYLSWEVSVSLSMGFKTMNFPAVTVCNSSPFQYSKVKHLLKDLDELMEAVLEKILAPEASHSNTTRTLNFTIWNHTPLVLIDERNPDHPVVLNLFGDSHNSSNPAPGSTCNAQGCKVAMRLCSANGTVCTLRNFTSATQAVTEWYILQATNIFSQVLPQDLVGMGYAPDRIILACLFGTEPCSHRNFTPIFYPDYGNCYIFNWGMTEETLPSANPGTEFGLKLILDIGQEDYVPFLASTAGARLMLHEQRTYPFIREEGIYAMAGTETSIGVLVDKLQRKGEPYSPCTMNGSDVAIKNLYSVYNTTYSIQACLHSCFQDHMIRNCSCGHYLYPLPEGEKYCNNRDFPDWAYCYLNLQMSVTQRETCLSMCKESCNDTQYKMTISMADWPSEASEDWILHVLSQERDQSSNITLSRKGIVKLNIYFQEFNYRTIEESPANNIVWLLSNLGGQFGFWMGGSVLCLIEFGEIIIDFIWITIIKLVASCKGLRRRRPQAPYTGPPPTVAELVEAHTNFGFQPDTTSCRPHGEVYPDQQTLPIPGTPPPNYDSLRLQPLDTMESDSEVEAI
Sequence (Q9WU39 1-655): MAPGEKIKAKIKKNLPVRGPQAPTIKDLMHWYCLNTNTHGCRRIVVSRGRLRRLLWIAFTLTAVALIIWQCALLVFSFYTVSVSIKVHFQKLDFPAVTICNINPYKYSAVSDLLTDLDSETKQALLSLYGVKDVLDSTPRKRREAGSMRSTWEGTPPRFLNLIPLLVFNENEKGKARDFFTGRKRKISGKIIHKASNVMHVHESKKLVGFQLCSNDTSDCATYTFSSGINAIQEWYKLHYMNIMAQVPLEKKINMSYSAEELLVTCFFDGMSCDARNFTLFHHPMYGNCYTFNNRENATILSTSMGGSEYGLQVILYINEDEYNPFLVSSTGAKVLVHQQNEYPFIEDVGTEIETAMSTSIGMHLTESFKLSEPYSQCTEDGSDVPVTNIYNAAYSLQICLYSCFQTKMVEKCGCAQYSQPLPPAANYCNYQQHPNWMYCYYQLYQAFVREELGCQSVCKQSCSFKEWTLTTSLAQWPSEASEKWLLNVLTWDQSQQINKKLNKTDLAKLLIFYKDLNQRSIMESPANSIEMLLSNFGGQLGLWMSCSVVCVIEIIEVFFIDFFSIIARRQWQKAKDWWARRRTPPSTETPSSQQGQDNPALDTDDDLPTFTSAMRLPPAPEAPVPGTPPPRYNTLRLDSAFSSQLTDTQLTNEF
EXPERIMENT: Ussing Chamber assay: inhibition of amiloride sensitive short circuit current (I_sc) in M-1 cells
Format: cell-based
CONDITION PARAMETERS: Ussing Chamber; mouse kidney M-1 cells on transwell filters; short circuit current; compound added to apical solution; 37° C.; read-out: IC50
pIC50: −log10 of the molar value.
Classify by measured pIC50: MET if it is equal to or exceeds 8, NOT MET if it is smaller.

STRUCTURE SMILES STRING | ASSIGNED CLASS
N=C(NC(=O)c1nc(Cl)c(N)nc1N)NC1CCN(CC(=O)O)CC1 | NOT MET
NC(=NC(=O)c1nc(Cl)c(N)nc1N)NC1CCN(CC(=O)NCC(=O)O)CC1 | NOT MET
COC(=O)CN1CCC(NC(N)=NC(=O)c2nc(Cl)c(N)nc2N)CC1 | NOT MET
COC(=O)c1ccccc1NC(=O)CN1CCC(NC(N)=NC(=O)c2nc(Cl)c(N)nc2N)CC1 | MET
NC(=NC(=O)c1nc(Cl)c(N)nc1N)NC1CCN(CC(=O)Nc2ccccc2C(=O)O)CC1 | NOT MET
NC(=NC(=O)c1nc(Cl)c(N)nc1N)NC1CCN(CC(=O)Nc2cccc(CN3CCOCC3)c2)CC1 | MET
NC(=NC(=O)c1nc(Cl)c(N)nc1N)NC1CCN(CC(=O)NCc2ccccc2)CC1 | MET
CN(C(=O)CN1CCC(NC(N)=NC(=O)c2nc(Cl)c(N)nc2N)CC1)c1ccccc1 | NOT MET
